Biological target: α4β1 integrin (on J6.77 cells) (UniProt P13612 34-1032; P05556 21-798, limits assumed)
Assay: cell-based or functional assay
MEASURED PROPERTY: Percent Inhibition (J6.77 adhesion to CS-1 peptide of fibronectin, 5 ug/ml) (%)
Please give a number only; it is taken to be in %.

Report Percent Inhibition (J6.77 adhesion to CS-1 peptide of fibronectin, 5 ug/ml) for sc 264 (antibody, V domains shown, RGD in heavy chain CDR3) VH: QVQLQESGPGLVKPSQTLSLTCTVSGGSISSGGYYWSWIRQHPGKGLEWIGYIYYSGRTYNNPSLKSRVTISVDTSKNQFSLKLSSVTAADTAVYYCARVATGRGDYHFYAMDVWGQGTTVTVSS VL: SYELTQPSSVSVSPGQTARITCSGDVLAKKSARWFHQKPGQAPVLVIYKDSERPSGIPERFSGSSSGTTVTLTISGAQVEDEAAYYCYSAADNNLVFGGGTKLTVL please.
-8

Report Percent Inhibition (J6.77 adhesion to CS-1 peptide of fibronectin, 5 ug/ml) for sc 188 (antibody, V domains shown) VH: QVQLQESGPGLVKPSQTLSLTCTVSGGSISSGVYYWTWIRQHPGNGLEWIGYIYYSGSTSYNPSLKSRVTISVDTSKKQFSLNLTSVTAADTAVYYCAREGPLRGDYYYGLDVWGQGTTVTVSS VL: EIVLTQSPGTLSLSPGERATLSCRAGQTISSRYLAWYQQKPGQAPRPLIYGASSRATGIPDRFSGSGSGTDFTLTISRLEPEDFAVYYCQQYGSSPRTFGQGTKVEIK please.
-10

Report Percent Inhibition (J6.77 adhesion to CS-1 peptide of fibronectin, 5 ug/ml) for sc 97 (antibody, V domains shown, also called sc 097) VH: EVQLVQSGAEVKKPGESLKISCKGSGYSFTSYWIGWVRQMPGKGLEWMGIIYPGDSDTRYSPSFQGQVILSADKSISTAYLQWSSLKASDTAMYYCARHDESSGYYYVFDIWGQGTMVTVSS VL: SYELTQPPSVSVSPGQTARITCSGDALPKKYAYWYQQKSGQAPVLVIYEDIKRPSGIPERFSGSSSGTMATLTISGAQVEDEADYYCYSTDSSGNHWVFFGGGTKLTVL please.
-7
